Cited source for all entries: patent US20250026850A1

Target: T1, cynomolgus macaque (Macaca fascicularis) CD39 on cells (cynomolgus macaque (Macaca fascicularis), UniProt P49961 7-510 (human entry))
T1 construct: CHO cells engineered to express cyno CD39, or primary cyno B cells and monocytes; also called cyno CD39; cCD39
T1 chain: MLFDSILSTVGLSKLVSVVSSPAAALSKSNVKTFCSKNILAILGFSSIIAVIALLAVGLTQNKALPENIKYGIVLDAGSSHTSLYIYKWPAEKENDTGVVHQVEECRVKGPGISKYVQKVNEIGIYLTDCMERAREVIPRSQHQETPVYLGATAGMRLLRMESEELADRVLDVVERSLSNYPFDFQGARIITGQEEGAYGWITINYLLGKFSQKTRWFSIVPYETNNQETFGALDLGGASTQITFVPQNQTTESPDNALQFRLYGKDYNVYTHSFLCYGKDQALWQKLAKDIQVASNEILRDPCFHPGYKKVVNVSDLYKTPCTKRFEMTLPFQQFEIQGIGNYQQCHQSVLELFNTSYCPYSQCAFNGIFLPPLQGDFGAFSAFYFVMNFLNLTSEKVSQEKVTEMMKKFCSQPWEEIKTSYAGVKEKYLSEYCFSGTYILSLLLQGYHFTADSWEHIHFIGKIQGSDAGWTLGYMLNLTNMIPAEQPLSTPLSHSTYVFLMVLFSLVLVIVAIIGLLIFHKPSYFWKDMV
Test: flow cytometry, 100 nM IgG, cCD39-CHO cells; MFI ratio to parental CHO
Just a reminder that ties go to Not satisfied: only Cell Binding (FOB) strictly below 2000 FOB counts as Satisfied.

{"BINDER": "31415 (antibody, V domains shown) VH: QVQLVQSGAEVKKPGASVKVSCKASGYTFTSYQMHWVRQAPGQGLEWMGRINPSGGSTWYAQKFQGRVTMTRDTSTSTVYMELSSLRSEDTAVYYCARGKREGGTEYLRSWGQGTLVTVSS VL: EIVLTQSPGTLSLSPGERATLSCRASQSVSSSYLAWYQQKPGQAPRLLIYGASSRATGIPDRFSGSGSGTDFTLTISRLEPEDFAVYYCQQYHSYITFGGGTKVEIKR", "LABEL": "Not satisfied"}
{"BINDER": "27590 (antibody, V domains shown) VH: QVQLVQSGAEVKKPGSSVKVSCKASGGTFSNYAISWVRQAPGQGLEWMGGIIPIFGTANYAQKFQGRVTITADESTSTAYMELSSLRSEDTAVYYCARGPTVTATTSIGTHNWFDPWGQGTLVTVSS VL: EIVLTQSPATLSLSPGERATLSCRASQSVSSYLAWYQQKPGQAPRLLIYDASNRATGIPARFSGSGSGTDFTLTISSLEPEDFAVYYCQQRNFYPPTFGGGTKVEIK", "LABEL": "Satisfied"}
{"BINDER": "29872 (antibody, V domains shown) VH: QVQLVQSGAEVKKPGASVKVSCKASGYTFKSYEMHWVRQAPGQGLEWMGRINPSVGSTWYAQKFQGRVTMTRDTSTSTVYMELSSLRSEDTAVYYCARGKREGGTEYLRHWGQGTLVTVSS VL: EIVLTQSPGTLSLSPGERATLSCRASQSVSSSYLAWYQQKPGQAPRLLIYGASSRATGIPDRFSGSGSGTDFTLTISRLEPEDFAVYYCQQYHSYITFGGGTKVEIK", "LABEL": "Not satisfied"}
{"BINDER": "31414 (antibody, human IgG4 S228P, kappa, V domains shown) VH: QVQLVQSGAEVKKPGASVKVSCKASGYTFKSYEMHWVRQAPGQGLEWMGRINPSVGSTWYAQKFQGRVTMTRDTSTSTVYMELSSLRSEDTAVYYCARGKREGGTEYLRNWGQGTLVTVSS VL: EIVLTQSPGTLSLSPGERATLSCRASQSVSSSYLAWYQQKPGQAPRLLIYGASSRATGIPDRFSGSGSGTDFTLTISRLEPEDFAVYYCQQYHSYITFGGGTKVEIKR", "LABEL": "Not satisfied"}

INPUT: Lab log: compare recorded Cell Binding (FOB) with 2000 FOB; is it strictly lower for 27568 (antibody, V domains shown) VH: QVQLVQSGAEVKKPGSSVKVPCKASGGTFSSYAISWVRQAPEQGLEWMGSIIPIFGTANYAQKFQGRVTITADESTSTAYMELSSLRSEDTAVYYCAGESGGYRDHKLDVWGQGTVVTVSS VL: EIVLTQSPATLSLSPGERATLSCRASQSVSSYLAWYQQKPGQAPRLLIYDASNRATGIPARFSGSGSGTDFTLTISSLEPEDFAVYYCQQSVFWPITFGGGTKVEIKR ?
OUTPUT: Satisfied

INPUT: Lab log: compare recorded Cell Binding (FOB) with 2000 FOB; is it strictly lower for 31891 (antibody, V domains shown) VH: QVQLVQSGAEVKKPGASVKVSCKASGYIFKSYEMHWVRQAPGQGLEWMGRINPSVGSTWYAQKFQGRVTMTRDTSTSTVYMELSSLRSEDTAVYYCARGKREGGTEYLRVWGQGTLVTVSS VL: EIVLTQSPGTLSLSPGERATLSCRASQSVSSSYLAWYQQKPGQAPRLLIYYASSRAYGIPDRFSGSGSGTDFTLTISRLEPEDFAVYYCQQYHNAITFGGGTKVEIKR ?
OUTPUT: Not satisfied

INPUT: Lab log: compare recorded Cell Binding (FOB) with 2000 FOB; is it strictly lower for 27535 (antibody, V domains shown) VH: QVQLVQSGAEVKKPGSSVKVSCKASGGTFSSYAISWVRQAPGQGLEWMGGIIPIFGTANYAQKFQGRVTITADESTSTAYMELSSLRSEDTAVYYCARDTPRWRYHYFDYWGQGTLVTVSS VL: EIVLTQSPATLSLSPGERATLSCRASQSVSSYLAWYQQKPGQAPRLLIYDASKRATGIPARFSGSGSGTDFTLTISSLEPEDFAVYYCQQVLNYPLTFGGGTKVEIKR ?
OUTPUT: Satisfied

INPUT: Lab log: compare recorded Cell Binding (FOB) with 2000 FOB; is it strictly lower for 31861 (antibody, V domains shown) VH: QVQLVQSGAEVKKPGSSVKVSCKASGGTFGSYGISWVRQAPGQGLEWMGSIIPEFGIANYAQKFQGRVTITADESTSTAYMELSSLRSEDTAVYYCARESGTYRDHRLDVWGQGTMVTVSS VL: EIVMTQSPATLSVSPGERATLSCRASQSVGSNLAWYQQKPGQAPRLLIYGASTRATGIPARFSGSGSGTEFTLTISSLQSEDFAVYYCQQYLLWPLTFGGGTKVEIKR ?
OUTPUT: Not satisfied

INPUT: Lab log: compare recorded Cell Binding (FOB) with 2000 FOB; is it strictly lower for 27571 (antibody, V domains shown) VH: QVQLVQSGAEVKKPGSSVKASCKASGGTFSSYAISWVRQAPGQGLEWMGSIIPIFGTANYAQKFRGRVTITADESTSTTYMELSSLRSEDTAVYYCARESGGYRDHRLDVWGQGTMVTVSS VL: EIVMTQSPATLSVSPGERATLSCRASQSVGSNLAWYQQKPGQAPRLLIYGASTRATGIPARFSGSGSGTEFTLTISSLQSEDFAVYYCQQYLIWPLTFGGGTKVEIK ?
OUTPUT: Satisfied

INPUT: Lab log: compare recorded Cell Binding (FOB) with 2000 FOB; is it strictly lower for 27577 (antibody, V domains shown) VH: QVQLVQSGAEVKKPGSSVKVSCKASGGAFSSYAIGWVRQAPGQGLEWMGGIIPTFGTANYAQKFQGRVTITADESTSTAYMELSSLRSEDTAVYYCARDGGGYQHHYFDLWGRGTLVTVSS VL: EIVMTQSPATLSVSPGERATLSCRASQSVGSNLAWYQQKPGQAPRLLIYGASTRATGIPARFSGSGSGTEFTLTISSLQSEDFAVYYCQQLTKWPLTFGGGTKVEIKR ?
OUTPUT: Satisfied
